KD-WT/KD-mut listing for selected binders.
# STUDY_TARGET: T1, Factor VIIIa (recombinant FVIII, Kogenate FS, Bayer healthcare, activated with alpha-thrombin) (UniProt P00451 20-2351, limits assumed)
# T1 construct: also called FVIIIa; cofactor
# T1 sequence (looked up): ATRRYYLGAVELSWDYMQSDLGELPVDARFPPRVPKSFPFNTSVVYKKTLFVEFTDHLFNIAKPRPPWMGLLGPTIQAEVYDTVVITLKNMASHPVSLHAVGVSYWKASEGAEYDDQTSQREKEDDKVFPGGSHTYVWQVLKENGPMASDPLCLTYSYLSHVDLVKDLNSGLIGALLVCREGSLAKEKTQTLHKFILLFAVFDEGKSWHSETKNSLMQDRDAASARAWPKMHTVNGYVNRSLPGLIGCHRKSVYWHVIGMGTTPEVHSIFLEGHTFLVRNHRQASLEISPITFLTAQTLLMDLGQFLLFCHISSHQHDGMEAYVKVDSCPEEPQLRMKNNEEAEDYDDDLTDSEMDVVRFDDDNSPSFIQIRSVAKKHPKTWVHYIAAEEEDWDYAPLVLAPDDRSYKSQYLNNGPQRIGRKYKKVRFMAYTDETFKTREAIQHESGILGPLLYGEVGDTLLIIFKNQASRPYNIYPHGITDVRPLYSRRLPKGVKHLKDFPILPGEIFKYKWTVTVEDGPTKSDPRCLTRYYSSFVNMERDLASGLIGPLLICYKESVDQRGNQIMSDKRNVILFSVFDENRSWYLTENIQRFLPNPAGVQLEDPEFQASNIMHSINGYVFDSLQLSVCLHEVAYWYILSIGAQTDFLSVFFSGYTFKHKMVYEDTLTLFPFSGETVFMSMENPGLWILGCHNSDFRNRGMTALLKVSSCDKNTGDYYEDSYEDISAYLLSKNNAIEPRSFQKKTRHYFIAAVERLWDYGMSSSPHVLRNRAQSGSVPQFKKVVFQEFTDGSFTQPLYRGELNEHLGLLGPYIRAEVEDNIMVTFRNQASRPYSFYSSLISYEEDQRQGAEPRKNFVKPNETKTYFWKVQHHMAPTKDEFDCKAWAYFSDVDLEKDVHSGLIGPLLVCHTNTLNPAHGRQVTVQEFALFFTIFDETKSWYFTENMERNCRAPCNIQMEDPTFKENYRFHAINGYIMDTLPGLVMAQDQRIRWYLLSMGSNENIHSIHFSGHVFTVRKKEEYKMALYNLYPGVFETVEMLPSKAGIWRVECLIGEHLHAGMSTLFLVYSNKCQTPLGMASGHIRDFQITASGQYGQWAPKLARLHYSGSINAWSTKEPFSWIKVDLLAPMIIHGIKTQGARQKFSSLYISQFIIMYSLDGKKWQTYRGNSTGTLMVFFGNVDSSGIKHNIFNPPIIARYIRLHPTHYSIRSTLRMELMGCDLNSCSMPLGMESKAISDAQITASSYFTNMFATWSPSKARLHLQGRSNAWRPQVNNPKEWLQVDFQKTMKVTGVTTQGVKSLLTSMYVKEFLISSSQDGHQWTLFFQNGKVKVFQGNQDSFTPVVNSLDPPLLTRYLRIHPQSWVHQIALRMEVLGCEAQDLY
# ASSAY_OVERVIEW: same assay; KD-app of Catalyst Biosciences WT FIXa divided by KD-app of the variant
State just the number; it will be interpreted in ratio.

BINDER	KD-WT/KD-mut (ratio)
FIXa-A103N/N105S/K247N/N249S/R318Y/R338E/R403E/E410N (enzyme) chain 1: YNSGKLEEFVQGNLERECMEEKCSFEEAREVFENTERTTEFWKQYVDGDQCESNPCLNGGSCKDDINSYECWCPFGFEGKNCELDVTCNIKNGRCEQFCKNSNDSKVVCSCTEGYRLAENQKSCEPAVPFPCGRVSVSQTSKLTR chain 2: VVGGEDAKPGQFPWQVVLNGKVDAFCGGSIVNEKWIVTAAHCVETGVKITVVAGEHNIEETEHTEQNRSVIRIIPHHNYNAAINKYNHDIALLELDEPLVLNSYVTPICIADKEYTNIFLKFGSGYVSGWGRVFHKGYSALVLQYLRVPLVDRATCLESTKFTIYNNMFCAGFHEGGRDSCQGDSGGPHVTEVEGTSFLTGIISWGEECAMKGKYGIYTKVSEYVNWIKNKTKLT	1

Task: Fill in the blank: the reported KD-WT/KD-mut of FIXa-K247N/N249S/N260S/R318Y/R338E/R403E/E410N (enzyme, also called K82N/N84S/N95S/R150Y/R170E/R233E/E240N (chymotrypsin numbering)) chain 1: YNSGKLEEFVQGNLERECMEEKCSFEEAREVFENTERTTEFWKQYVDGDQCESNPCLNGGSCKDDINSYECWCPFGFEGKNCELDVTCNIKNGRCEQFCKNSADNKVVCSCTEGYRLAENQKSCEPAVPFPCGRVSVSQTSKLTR chain 2: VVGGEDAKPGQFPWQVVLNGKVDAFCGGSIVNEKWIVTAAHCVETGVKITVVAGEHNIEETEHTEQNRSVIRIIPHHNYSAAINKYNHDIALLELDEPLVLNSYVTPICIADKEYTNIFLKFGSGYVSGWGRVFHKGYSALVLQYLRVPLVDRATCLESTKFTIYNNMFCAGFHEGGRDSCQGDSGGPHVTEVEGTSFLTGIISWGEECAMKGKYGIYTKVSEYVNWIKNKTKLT is ____.
Output: 1.5

Task: And the next one, FIXa-Y155F/K247N/N249S/R318Y/R338E/E410N (enzyme) chain 1: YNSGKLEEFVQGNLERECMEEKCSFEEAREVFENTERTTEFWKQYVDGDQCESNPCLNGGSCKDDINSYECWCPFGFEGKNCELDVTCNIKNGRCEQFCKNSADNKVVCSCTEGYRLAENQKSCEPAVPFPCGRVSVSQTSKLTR chain 2: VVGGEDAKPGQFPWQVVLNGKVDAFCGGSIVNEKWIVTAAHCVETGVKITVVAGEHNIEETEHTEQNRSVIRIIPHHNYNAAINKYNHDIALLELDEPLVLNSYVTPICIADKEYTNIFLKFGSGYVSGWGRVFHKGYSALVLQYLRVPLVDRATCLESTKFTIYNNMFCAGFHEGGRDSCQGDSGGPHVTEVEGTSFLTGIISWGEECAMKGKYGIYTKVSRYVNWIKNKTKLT ?
Output: 12.8

Task: And the next one, FIXa-R318Y/R338E/N346Y/R403E/E410N (enzyme, also called R150Y/R170E/N178Y/R233E/E240N (chymotrypsin numbering)) chain 1: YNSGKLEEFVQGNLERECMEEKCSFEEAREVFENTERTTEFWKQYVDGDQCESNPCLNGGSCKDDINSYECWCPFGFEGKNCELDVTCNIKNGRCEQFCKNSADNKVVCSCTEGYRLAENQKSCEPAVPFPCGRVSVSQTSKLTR chain 2: VVGGEDAKPGQFPWQVVLNGKVDAFCGGSIVNEKWIVTAAHCVETGVKITVVAGEHNIEETEHTEQKRNVIRIIPHHNYNAAINKYNHDIALLELDEPLVLNSYVTPICIADKEYTNIFLKFGSGYVSGWGRVFHKGYSALVLQYLRVPLVDRATCLESTKFTIYYNMFCAGFHEGGRDSCQGDSGGPHVTEVEGTSFLTGIISWGEECAMKGKYGIYTKVSEYVNWIKNKTKLT ?
Output: 2.4
